biological target: PARP10cat (Homo sapiens, UniProt Q53GL7); assay: Inhibition of PARP10cat-mediated ADP-ribosylation of SRPK2 using NAD+ (100 μM); type: biochemical; conditions: 12 vs 8; 14 vs 3; 20, 22 vs 16; 23, 24 vs 15
Sequence (Q53GL7 806-1025 limits assumed): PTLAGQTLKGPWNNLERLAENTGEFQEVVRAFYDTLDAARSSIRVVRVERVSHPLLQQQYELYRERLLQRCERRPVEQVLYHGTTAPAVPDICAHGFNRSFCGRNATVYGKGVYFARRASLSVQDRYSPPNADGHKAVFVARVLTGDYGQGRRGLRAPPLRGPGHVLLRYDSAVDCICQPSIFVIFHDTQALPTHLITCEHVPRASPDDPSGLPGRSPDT
Below, each entry is listed with its recorded improvement in selectivity for PARP10 over PARP11 compared to parent compound.
Numbers only here, please. The scale is fold.

Cc1c(-c2ccccc2)ccc2c1CCNC2=O [Compound 14]; 70

Please find the next compound below.
Look up improvement in selectivity for PARP10 over PARP11 compared to parent compound for this compound: O=C1NCCc2cc(-c3cccc(C(F)(F)F)c3)ccc21 [Compound 12]
2
